Value source: patent US20170174769A1

# STUDY_SYSTEM: human KLB and human FGFR1c co-expressed on HEK293/hKLB/hFGFR1c/SRE-luc cells (human, UniProt Q86Z14 1-1044; P11362 22-822)
# Sequence (Q86Z14 whole entry, chain 1 of 2): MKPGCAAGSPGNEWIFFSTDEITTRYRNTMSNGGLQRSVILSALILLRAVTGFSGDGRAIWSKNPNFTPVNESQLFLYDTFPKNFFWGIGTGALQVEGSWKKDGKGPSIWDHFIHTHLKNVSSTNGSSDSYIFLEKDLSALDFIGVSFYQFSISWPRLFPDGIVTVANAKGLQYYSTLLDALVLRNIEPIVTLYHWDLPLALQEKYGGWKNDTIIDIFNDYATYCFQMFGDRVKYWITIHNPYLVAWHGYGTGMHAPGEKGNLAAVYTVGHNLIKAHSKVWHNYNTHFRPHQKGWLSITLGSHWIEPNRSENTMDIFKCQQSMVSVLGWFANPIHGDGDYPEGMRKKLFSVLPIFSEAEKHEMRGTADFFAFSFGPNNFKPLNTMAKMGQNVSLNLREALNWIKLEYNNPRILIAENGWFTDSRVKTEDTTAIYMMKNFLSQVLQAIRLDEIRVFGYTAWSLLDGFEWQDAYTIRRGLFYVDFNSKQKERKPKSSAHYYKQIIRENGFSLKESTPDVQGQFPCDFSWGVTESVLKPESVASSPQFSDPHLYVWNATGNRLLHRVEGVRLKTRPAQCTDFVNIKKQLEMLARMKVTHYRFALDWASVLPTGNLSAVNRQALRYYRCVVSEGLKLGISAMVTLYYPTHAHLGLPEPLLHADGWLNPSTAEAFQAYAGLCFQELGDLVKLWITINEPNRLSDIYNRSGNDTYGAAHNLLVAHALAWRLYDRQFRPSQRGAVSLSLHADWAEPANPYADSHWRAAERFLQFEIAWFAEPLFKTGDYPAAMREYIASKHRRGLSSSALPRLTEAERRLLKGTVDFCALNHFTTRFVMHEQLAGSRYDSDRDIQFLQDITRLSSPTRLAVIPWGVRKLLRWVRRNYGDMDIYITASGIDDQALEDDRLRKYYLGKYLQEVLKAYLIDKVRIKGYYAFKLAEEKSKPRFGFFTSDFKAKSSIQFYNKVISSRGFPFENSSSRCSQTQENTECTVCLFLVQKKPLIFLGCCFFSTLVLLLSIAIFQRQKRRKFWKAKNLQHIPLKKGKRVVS
# Sequence (P11362 other isoform, or with tags, fused parts or gaps limits assumed, chain 2 of 2): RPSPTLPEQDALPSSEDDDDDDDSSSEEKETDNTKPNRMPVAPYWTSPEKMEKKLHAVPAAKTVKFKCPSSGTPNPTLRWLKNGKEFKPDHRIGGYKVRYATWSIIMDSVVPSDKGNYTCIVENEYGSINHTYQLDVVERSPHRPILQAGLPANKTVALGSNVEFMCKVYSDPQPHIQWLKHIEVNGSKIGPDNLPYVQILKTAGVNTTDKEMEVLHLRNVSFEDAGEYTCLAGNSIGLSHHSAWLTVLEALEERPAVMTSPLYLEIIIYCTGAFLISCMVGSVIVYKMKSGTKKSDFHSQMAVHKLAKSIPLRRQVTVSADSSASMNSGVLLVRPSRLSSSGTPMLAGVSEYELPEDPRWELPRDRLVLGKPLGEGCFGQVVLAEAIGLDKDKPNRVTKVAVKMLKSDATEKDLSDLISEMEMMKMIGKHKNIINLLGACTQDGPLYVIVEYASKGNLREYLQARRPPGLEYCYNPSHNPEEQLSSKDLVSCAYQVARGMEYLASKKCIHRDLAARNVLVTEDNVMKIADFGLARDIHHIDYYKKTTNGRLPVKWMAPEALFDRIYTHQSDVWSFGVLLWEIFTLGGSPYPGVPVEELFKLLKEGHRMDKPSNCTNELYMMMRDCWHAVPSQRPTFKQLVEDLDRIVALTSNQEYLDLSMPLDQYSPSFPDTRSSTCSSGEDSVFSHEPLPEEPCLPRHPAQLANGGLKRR
# TEST_METHOD_NOTES: cell-based or functional assay
READOUT_KIND: IC50, inhibition of 1 nM hFGF21 (nM)
Provide only the numeric value, understood in nM.

Worked examples, 3 binders total:
H4H8871P (antibody, V domains shown, human IgG4 Fc (H4H prefix)) VH: QVQLQESGPGLVKPSETLSLTCTVSGASISSYYWSWIRQPPGKGLEWIGYIYSSGIIKYNPSLKSRVTISADTSKNQFSLKLSSVTAADTAVYYCARHGIFGVMEYFQRWGQGTLVTVSS VL: DIQMTQSPSSLSASIGDRVTITCQASQDIGNFLNWYHQKPGKAPTLLIYDASNMETGVPSRFRGSGSGTYFTFIISSLQPEDVATYYCQQYDNLPLTFGGGTKVEIK | 0.38
H1H8900P (antibody, V domains shown, H1H Fc prefix (human Fc)) VH: QVQLVESGGGVVQPGRSLRLSCVASGFTFSSYGMHWVRQAPGKGLEWVAVISFDGSNKYYADSVKGRFTISRDNSKNTLYLQMNSLRPADTAVYYCAKDRSNYYYFGMDVWGQGTTVTVSS VL: DIVMTQTPLSLPVTPGEPASISCRSSQSLLDSDDGNTYLDWYLQKPGQSPQLLIYTLSYRASGVPDRFSGSGSGTDFTLKISRVEAEDVGVYYCMQRIEFPLTFGGGTKVEIK | 4.5
H2aM8091N (antibody, V domains shown, mouse IgG2 Fc (H2aM prefix); also called H2M8091N) VH: QVQLVQSGADMKKPGASVKVSCKASGYTFTTYGINWVRQAPGQGLEWMGWISAYSGITNYAQSFQGRVTMTTDTSTSTAYMELRSLRSDDTAVYYCARGGYNWATGDYFDYWGQGTLVTVSS VL: DIQMTQSPSTLSASIGDRVTITCRASQSISSWLAWYQQKPGKAPKFLIYKASSLASGVPSRFSGSGSGTEFTLTISSLQPDDFATYYCQQYDSYSPYTFGQGTKVEIK | 1.5

// below: IC50, inhibition of 1 nM hFGF21 requested for another binder
binder H2aM8109N (antibody, V domains shown, mouse IgG2 Fc (H2aM prefix)) VH: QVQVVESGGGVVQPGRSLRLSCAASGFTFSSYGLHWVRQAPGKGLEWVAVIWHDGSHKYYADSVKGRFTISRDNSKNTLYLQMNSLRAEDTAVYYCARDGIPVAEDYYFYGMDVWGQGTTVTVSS VL: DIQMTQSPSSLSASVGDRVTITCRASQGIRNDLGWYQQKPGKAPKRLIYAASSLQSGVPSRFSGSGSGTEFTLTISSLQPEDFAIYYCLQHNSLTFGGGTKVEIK , IC50, inhibition of 1 nM hFGF21 observed: 0.033
